This collection of values is drawn from patent US11801252B2.

Test Details: In vivo pharmacokinetics study in healthy subjects, 75-450 mg single dose, fasting (Test Example 2)
Design: species or system human (healthy male subjects)
Test Conditions: human, plasma; after Formulation 5, dose group A 75 mg (equal SNAC content), single oral, fasting, healthy male subjects, N = 16; Mean ± SD
Experimental: To study the pharmacokinetic characteristics of 75 mg, 150 mg, 300 mg and 450 mg doses of abiraterone acetate tablets in healthy subjects after a single oral administration under fasting state. A single-center, open-label, sequential trial design was applied. […] The blood concentration of abiraterone at different time points after dosing was determined by HPLC-MS/MS. Pharmacokinetic parameters were calculated using non-compartmental model and statistically analyzed. […]
Quantity Kind: Cmax (ng/mL)

INSERT INTO results (molecule, quantity_kind, reading) VALUES
  ('O=C([O-])CCCCCCCNC(=O)c1ccccc1O.[Na+] [SNAC, sodium 8-(salicylamido)caprylate]', 'Cmax', 407);

----------
Test Details: Pharmacokinetics study in male cynomolgus monkeys (Test Example 1)
Assay type: in vivo
Test Conditions: cynomolgus monkey, plasma, po, 300 mg/animal, t = 24 h, after Formulation 2 (2 tablets, 300 mg/animal) PO, fasting, mean ± SD, n = 8, read-out: AUC(0-t) of SNAC in plasma
Quantity Kind: AUC(0-t) (ng·h/mL)

INSERT INTO assay_data (compound, units_of_measure, reading) VALUES
  ('O=C([O-])CCCCCCCNC(=O)c1ccccc1O.[Na+] [SNAC, sodium 8-(salicylamido)caprylate]', 'ng·h/mL', 40300);

----------
Test Details: Pharmacokinetics study in male cynomolgus monkeys (Test Example 1)
Type: in vivo
Test Conditions: cynomolgus monkey, plasma, po, 300 mg/animal, after Formulation 2 (2 tablets, 300 mg/animal) PO, high fat diet, mean ± SD, n = 8, read-out: AUC(0-∞) of SNAC in plasma
Quantity Kind: AUC(0-inf) (ng·h/mL)

INSERT INTO assay_data (compound, reading) VALUES
  ('O=C([O-])CCCCCCCNC(=O)c1ccccc1O.[Na+] [SNAC, sodium 8-(salicylamido)caprylate]', 18700);

----------
Test Details: In vivo pharmacokinetics study in healthy subjects, 75-450 mg single dose, fasting (Test Example 2)
Design: species or system human (healthy male subjects)
Test Conditions: human, plasma; after Formulation 5, dose group B 150 mg (equal SNAC content), single oral, fasting, healthy male subjects, N = 15; Mean ± SD; read-out: Vz/F of SNAC
Experimental: To study the pharmacokinetic characteristics of 75 mg, 150 mg, 300 mg and 450 mg doses of abiraterone acetate tablets in healthy subjects after a single oral administration under fasting state. A single-center, open-label, sequential trial design was applied. […] The blood concentration of abiraterone at different time points after dosing was determined by HPLC-MS/MS. Pharmacokinetic parameters were calculated using non-compartmental model and statistically analyzed. […]
Quantity Kind: Vd/F

INSERT INTO assay_data (compound, reading) VALUES
  ('O=C([O-])CCCCCCCNC(=O)c1ccccc1O.[Na+] [SNAC, sodium 8-(salicylamido)caprylate]', '1010 L');

----------
Test Details: Pharmacokinetics study in male cynomolgus monkeys (Test Example 1)
Assay type: in vivo
Test Conditions: cynomolgus monkey, plasma, po, 300 mg/animal, after Formulation 2 (2 tablets, 300 mg/animal) PO, fasting, mean ± SD, n = 8, read-out: T1/2 of SNAC in plasma (converted)
Quantity Kind: half-life (h)

INSERT INTO measurements (compound, units_of_measure, reading) VALUES
  ('O=C([O-])CCCCCCCNC(=O)c1ccccc1O.[Na+] [SNAC, sodium 8-(salicylamido)caprylate]', 'h', 3.16);
